Origin of the recorded values: ChEMBL document CHEMBL1154859

Target chain: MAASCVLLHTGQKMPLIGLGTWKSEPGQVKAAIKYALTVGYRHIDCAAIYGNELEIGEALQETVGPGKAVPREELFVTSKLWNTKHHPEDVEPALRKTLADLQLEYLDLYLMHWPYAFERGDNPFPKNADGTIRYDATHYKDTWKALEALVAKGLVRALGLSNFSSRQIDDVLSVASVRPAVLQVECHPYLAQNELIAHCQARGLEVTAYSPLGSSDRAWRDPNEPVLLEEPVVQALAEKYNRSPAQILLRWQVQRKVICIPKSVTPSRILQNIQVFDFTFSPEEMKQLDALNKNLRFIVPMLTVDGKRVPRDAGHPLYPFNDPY
assayEndpoint: pIC50
By convention, pIC50 is the negative base-10 log of a molar concentration.

QUERY: Give the measured pIC50 of COc1ccc(/C=C2\SC(=O)N(CC(=O)O)C2=O)cc1O .
RESULT: 4.43
